System: RAW264.7
Assay: Cytotoxicity against mouse RAW264.7 cells at 50 uM by MTT assay relative to control
Assay type: functional
quantity: Activity (%)
# value in %; strip the unit string

> print(dat)
                                smiles.text  quantity  measured.number
1  COc1ccc(CN2CCC(NC(=O)C(C)(C)Oc3ccc(C(=O)c4ccc(Cl)cc4)cc3)CC2)cc1  Activity             4.08
2  COc1ccc(CN2CCC(NC(=O)COc3ccc(C(=O)c4ccc(Cl)cc4)cc3)CC2)cc1  Activity             3.33
3  O=C(COc1ccc(C(=O)c2ccccc2)cc1)NC1CCN(Cc2ccccc2)CC1  Activity            96.32
4  Cc1ccc(CN2CCC(NC(=O)C(C)(C)CCCOc3cc(C)ccc3C)CC2)cc1  Activity            42.67
5  Cc1ccc(C)c(OCCCC(C)(C)C(=O)NC2CCN(Cc3ccc(F)cc3)CC2)c1  Activity            78.02

[Q] Entry `Cc1ccc(CN2CCC(NC(=O)C(C)(C)Oc3ccc(C(=O)c4ccc(Cl)cc4)cc3)CC2)cc1` : reported Activity = ?
[A] 4.64

[Q] // query Activity value for entry `Cc1ccc(C)c(OCCCC(C)(C)C(=O)NC2CCN(Cc3ccc(Cl)cc3)CC2)c1`
[A] 68.99

====

Tested on: RAW264.7
Test: Anti-inflammatory activity in LPS induced mouse RAW264.7 cells assessed as inhibition of IL-1beta mRNA expression at 10 uM incubated for 12 hrs followed by LPS stimulation and measured after 6 hrs by RT-PCR method
Format: functional, cell-based
Details: time 18.0 hrs
Calls of active or inactive are those of the source. The rule behind the calls is not given here.
Outcome (select one): TRUE (active), FALSE (inactive)

Record excerpt, results attached:
> print(dat)
                                smiles.text  tested.target  class.label
1  O=C(COc1ccc(C(=O)c2ccccc2)cc1)NC1CCN(Cc2ccccc2)CC1       RAW264.7         TRUE
2  CC(C)(Oc1ccc(Cl)cc1)C(=O)NC1CCN(Cc2ccccc2)CC1       RAW264.7        FALSE
3  Cc1ccc(C)c(OCCCC(C)(C)C(=O)NC2CCN(Cc3ccccc3)CC2)c1       RAW264.7         TRUE

# ---- query molecule ----
[Q] Which outcome was assigned to `CC(C)(Oc1ccc(C(=O)c2ccc(Cl)cc2)cc1)C(=O)NC1CCN(Cc2ccccc2)CC1` in this test?
[A] TRUE

====

Test system: RAW264.7
Experiment: Anti-inflammatory activity in LPS induced mouse RAW264.7 cells assessed as inhibition of IL-1beta mRNA expression incubated for 12 hrs followed by LPS stimulation and measured after 6 hrs by RT-PCR method
Type: functional, cell-based
Below, each entry is listed alongside its reported pIC50.
Here pIC50 is given on a logarithmic scale as minus log10 of the concentration in mol/L.

Past entries and their recorded results:
> print(dat)
                                smiles.text  tested.target  quantity  measured.number
1  Cc1ccc(C)c(OCCCC(C)(C)C(=O)NC2CCN(Cc3ccc(C(F)(F)F)cc3)CC2)c1       RAW264.7     pIC50             5.29
2  O=C(COc1ccc(C(=O)c2ccccc2)cc1)NC1CCN(Cc2ccccc2)CC1       RAW264.7     pIC50             4.82
3  Cc1ccc(CN2CCC(NC(=O)C(C)(C)CCCOc3cc(C)ccc3C)CC2)cc1       RAW264.7     pIC50             5.18
4  CC(C)(Oc1ccc(C(=O)c2ccc(Cl)cc2)cc1)C(=O)NC1CCN(Cc2ccc(OC(F)(F)F)cc2)CC1       RAW264.7     pIC50             5.01

[Q] Any idea what pIC50 was measured for `Cc1ccc(CN2CCC(NC(=O)C(C)(C)Oc3ccc(C(=O)c4ccc(Cl)cc4)cc3)CC2)cc1` ?
[A] 5.07

[Q] Would you kindly share the measured pIC50 for `CC(C)(Oc1ccc(C(=O)c2ccc(Cl)cc2)cc1)C(=O)NC1CCN(Cc2ccc(C(F)(F)F)cc2)CC1` ?
[A] 5.36

[Q] Which measured pIC50 value corresponds to `COc1ccc(CN2CCC(NC(=O)C(C)(C)CCCOc3cc(C)ccc3C)CC2)cc1` ?
[A] 5.38

[Q] # query: pIC50 of entry `COc1ccc(CN2CCC(NC(=O)COc3ccc(C(=O)c4ccc(Cl)cc4)cc3)CC2)cc1`
[A] 4.99

[Q] Value lookup for pIC50; key = `Cc1ccc(C)c(OCCCC(C)(C)C(=O)NC2CCN(Cc3ccc(Cl)cc3)CC2)c1`
[A] 4.83

[Q] Fill in the blank: the reported pIC50 of `COc1ccc(CN2CCC(NC(=O)C(C)(C)Oc3ccc(C(=O)c4ccc(Cl)cc4)cc3)CC2)cc1` is ____.
[A] 5.34

[Q] Find the recorded pIC50 belonging to `Cc1ccc(C)c(OCCCC(C)(C)C(=O)NC2CCN(Cc3ccc(F)cc3)CC2)c1` and report it.
[A] 5.34

====

Tested on: RAW264.7
Assay: Cytotoxicity against mouse RAW264.7 cells at 50 uM by MTT assay relative to control
Type: functional
As shown below, each of these molecules has a reported Activity value.
Only the number, expressed in %, is required.

[Q] What measured Activity goes with `COc1ccc(CN2CCC(NC(=O)C(C)(C)CCCOc3cc(C)ccc3C)CC2)cc1` ?
[A] 7.19

[Q] What value of measured Activity is listed for `CC(C)(Oc1ccc(C(=O)c2ccc(Cl)cc2)cc1)C(=O)NC1CCN(Cc2ccc(OC(F)(F)F)cc2)CC1` ?
[A] 88.34

[Q] For the molecule `CC(C)(Oc1ccc(C(=O)c2ccc(Cl)cc2)cc1)C(=O)NC1CCN(Cc2ccc(C(F)(F)F)cc2)CC1` , what Activity is on record?
[A] 98.46

[Q] Any idea what its Activity is? The molecule is `Cc1ccc(C)c(OCCCC(C)(C)C(=O)NC2CCN(Cc3ccc(C(F)(F)F)cc3)CC2)c1`
[A] 93.12
